Would you mind telling me the reported protein stability index of each entry?
- assay: protein stability index of a GFP-peptide fusion (GPS, HEK-293T) (PSI 1-6); higher = more stable;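 note: 24-mer peptide tiles fused after GFP, lentivirally expressed, FACS-sorted into six equal bins by GFP/DsRed ratio, decoded by Illumina sequencing, PSI is the read-weighted mean bin number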
- testContext: treatment: MLN4924 1 uM, 8 h; c terminus: a fixed tail appended
Please reply with the number alone, leaving off any unit.

# protein stability index (sequence: GELLNMIVAVIDSAQLQELVCHVM [INTS3] ) is 2.6

The reported protein stability index of the sequence QQQRQRPPRPPPRGTPPRRHSFRK [N4BP2L1] was 4.75

Measured protein stability index of EEIPVVICAAAGRMGATMAAINSI [GLT8D2] : 2.22

protein stability index reading for KWFGRKRTLSAFLCLGGLACLIVM [SLC22A15] : 5.17

For reference, reported protein stability index for GQSDFRPKNGRHAWIWHDCHRHYH [LOXL2] stands at 3.03

What the record says about KEQVLRKGTENLQRAQAEVLQSVR [FCHSD1] : protein stability index is 4.56

Documented protein stability index of LESQVQKDGVADSTVISSMPCLLM [C18orf25] : 3.54

Data point: RGRMPPTQPTHGQFALTNGDPLNC [NR2F2] ; protein stability index = 3.97

# sequence APATTSSWEVVRNPLIASSFSLVK [C22orf31] ; its protein stability index = 2.96

The sequence identified as GRPKELQPKKLHLCPLCGKNFSNN [ZNF263] registered its protein stability index at 3.58

In plain terms, NLENPMRRIHSLPQKLLGCSPALK [CDC25A] has a documented protein stability index of 3.11

The value of protein stability index measured for the sequence KEHYLTFEKSRYETYIHLLAMKIK [PSD2] turned out to be 2.73

Entry VEAVAYAPKKELINIKGISEAKAD [RAD51] — recorded protein stability index = 4.52

Entry EMRTKEQILELLVLEQFLTILPQE [ZNF263] — recorded protein stability index = 2.26

Looking up SGSGNGSSTLNPSTSSSTQGDPAF [NOL4L] , I found its protein stability index recorded as 5.07

What the record says about PTFRFLTKMWHPNIYENGDVCISI [UBE2R2] : protein stability index is 3.15

protein stability index reading for LERNPNGVADGVIKSVLWQTLQAL [CDKL4] : 2.56

Recorded result, PSQRLVQNCLWTLRNLSDAATKQE [CTNNB1] , protein stability index: 3.19

Sure, the documented protein stability index for MSTGPIAESWCYTQVKVVKFSYMW [SPOPL] is 3.35

What the record says about SSASYEKENEMMKSHVMDQAINNA [IKZF1] : protein stability index is 4.74

The reported protein stability index of the sequence VLEDNIIVSEVQFVESSGGGSSAV [BRF1] was 3.89

Lab note: measured protein stability index of DSFDKFEFCEPAFVVGNCLQIASD [PCMTD1] was 3.24

protein stability index reported for this sequence TFDVDEYEHYERVENGDFNWIVPG [CDC14A] : 4.17

Item: LHREVRSTPLTATPGGRGDMKYGI [VTI1B] | protein stability index: 3.67

Briefly, protein stability index measured for GNNLHNASIPEHLAYGSVITVKNL [POMT2] : 3.02

protein stability index reading for HGQAGQRQDPRPHGPQLPTGIEGN [ZBED2] : 5.11

Entry MYTPAYGDFDFDEVKFPNASDMFR [MYORG] — recorded protein stability index = 3.16

Reported protein stability index of WWNHMHFQHHAKPNCFRKDPDINM [FADS1] : 2.26

Recorded result, HVLLPVALEFQPQLVLVAAGFDAL [HDAC6] , protein stability index: 2.78

Record summary for PLDVVKVRLQSQRPSMASELMPSS [SLC25A39] : reported protein stability index = 3.59

protein stability index in this record for STGEVYCRVPNSGKDEIEAAVKAA [ALDH8A1] : 4.94

Measured protein stability index of IVIQTYYRQWHAKIFVENLRRQKS [IQUB] : 3.12

Lab note: measured protein stability index of LLDDGQQASPYHPGSCGAGAPSPG [ELF3] was 4.57

response.value for LSLSNATVLTRSLFLGRILSLTSS [FANCE] (field: protein stability index) = 2.88

Form: sequence = IDGDGDDMERFMEEMRELRRKIRE [BEX5] ; protein stability index = 3.71

Entry MASRKTKKKEGGALRAQRASSNVF [MYL5] , protein stability index reported as 4.05

The reported value for EQAQAYAERLGVTFFEVSPLCNFN [RAB40A] in terms of protein stability index is 2.48

Note to self: protein stability index recorded for DGNSLLSSIECYDPIIDSWEVVTS [KLHL12] was 3.47

response.value for KLVKVCNGHDCWSLISLSNNTGKN [TENT5D] (field: protein stability index) = 2.34

Looking up ALCENFPEEMATYLRYVRRLDFFE [CSNK1G1] , I see its protein stability index listed as 2.26

Value of measured protein stability index for the entry KETVNVKTVCGYYTSAGTYGLDSV [GMCL1] : 2.68

Memo: YLILALLSVTISFRIYKSVIQAVQ [RTN3] , reported protein stability index: 2.99

Short answer for TFPKALTNGSFSPSGNNGSVNWRT [DLC1] : protein stability index was 3.19

In plain terms, MVEADRPGKLFIGGLNTETNEKAL [RBMX] has a documented protein stability index of 4.39

The sequence identified as EAEADKPRRLGRLKYQAPDIDVQL [NOP53] registered its protein stability index at 4.4

Short answer for FAAEAGHIDIVKELIKWRAAIVVN [FEM1B] : protein stability index was 2.02

Lab note: KPIVPTDGKRVIVVFHCEFSSERG [CDC25A] gave protein stability index of 2.33

// recorded protein stability index for MSPSLQEGAQLGENKPSTCSFSIE [HESX1] : 5.07

Short answer for YLPKNTHPFLYLSLEISPQNVDVN [MLH1] : protein stability index was 2.09

Entry MKFAQVFGCFFYVYYIFERLCAPL [SOAT1] ; protein stability index = 2.87

Given item PRSAEPGYLVTKVVAVDRDSGQNA [PCDHGA10] , the value recorded as its protein stability index is 4.7

Data point: FSPNSPQFNVSGPGLLEEDNQWMT [NECAB1] ; protein stability index = 3.58

Kindly note the recorded protein stability index for MCTKMEQPFYHDDSYTATGYGRAP [JUNB] , which is 3.25

====

- assay: protein stability index of a GFP-peptide fusion (GPS, HEK-293T) (PSI 1-6); higher = more stable
- testContext: treatment: MLN4924 1 uM, 8 h; c terminus: a fixed tail appended
experimentalEndpoint: protein stability index
Give only the figure.

The sequence identified as RLLVGLALATLRVLRGLARPEHPP [TMEM175] registered its protein stability index at 2.35

sequence DLQVNRNFSLATNTKYSVYIYVYF [R3HDM1] , protein stability index observed: 2.88

Value of protein stability index reported for the sequence HQRIHTGEKPYECVQCGKSYSQSS [ZNF24] is 3.92

get_value(item= ITTPIIDTFKVPKEMFTVGCCVFA [SLC6A17] , readout=protein stability index) returns 2.86

What the record says about KPISTKSQFLKHQQTHNIEKAHEC [ZNF649] : protein stability index is 4.41

Kindly note the recorded protein stability index for YIMTRDYLTVKVWDLNMENRPIET [PPP2R2B] , which is 2.45

protein stability index recorded for this sequence, GSMEALNLKQLRKRGSIPTSLTAL [PPFIA4] , is 3.11

// protein stability index value for MPRAPKRQRCMPEEDLQSQSETQG [MAGEA10] : 5.05

// recorded protein stability index for RFLGEGHHRVQENQMDKARRHPQG [CHGB] : 4.62

Consider EMEKSFREEEKTFWKKYRTFWKED [CCDC70] . Its measured protein stability index is 3.67

What the record says about TSRRPSGTGTGPEDGRPSLGSPYG [PDLIM4] : protein stability index is 4.67

# protein stability index of DPKEDVFQQNHLFWLQNSSPSSDR [PHTF1] = 4.49

The sequence identified as YPTTLGKDRECQSQSLALKEQNNL [ZNF8] registered its protein stability index at 4.52

====

Please respond with reported protein stability index for every item in the list.
- assay: protein stability index of a GFP-peptide fusion (GPS, HEK-293T) (PSI 1-6); higher = more stable
- testContext: treatment: MLN4924 1 uM, 8 h; c terminus: a fixed tail appended
In your answer, state the number alone without any accompanying words.

Lookup result for EEEVFPLAMNYLDRFLAGVPTPKS [CCND2] ; measured protein stability index: 3.55

Please fill in: protein stability index reported for ELDELQLCKNCFYLSNARPDNWFC [ZMYND11] = 2.3

Notebook: QRLGIPKDPRQWTETHVRDWVMWA [ETS1] , protein stability index read as 2.48

response.value for VLLKKDVDAAYANKVELQAKVESM [KRT71] (field: protein stability index) = 3.65

Per the records, this sequence ( AYFAGNQKQLEQTLQQFNIKLRPP [ARFIP2] ) has protein stability index equal to 2.76

get_value(item= FVVMGVIGGLLGATFNCLNKRLAK [CLCN6] , readout=protein stability index) returns 2.7

Measured protein stability index, FLPHHIMVKIFRLLPTKSLVALKC [FBXO34] : 2.29

Briefly, protein stability index measured for LSDFGLCTGLKKAHRTEFYRNLTH [STK38L] : 2.2

// LNRPGPAPLSSRKHVLYVEHRHLN [TCF25] : protein stability index value = 2.8

// recorded protein stability index for HTGERPFQCNQCGASFTQKGNLLR [IKZF1] : 2.79

Form: sequence = ELDLSLSDLNEVPVKELAALPKAT [LRRC59] ; protein stability index = 4.49

Documented protein stability index of FSDVTFILDDGTISAHKPLLISSC [RHOBTB2] : 2.25

# protein stability index of EETRQKQLLADEKMKQLTEETEVL [TRIM35] = 5.57

Memo: LQRLSHSGSRVRVGFRLCNSTGGD [SCNN1D] , reported protein stability index: 3.11

Summary for this sequence, SRPVKGQVVTVHLQTSLENGTRVQ [FKBP8] : protein stability index is 3.51

# protein stability index (sequence: RVDPTRVNEFGMSGEDPTAAAPVA [CLPTM1] ) is 5.02

GET /value?item= DGMRNKETLEGREKAFIAHFQDNL [MED27] &field=protein stability index returns 4.2

// recorded protein stability index for WLSDWVTSYKVMVSNDSHTWVTVK [CPXM2] : 2.56

GET /value?item= ADAISENYRIMSYFKEAELKDLLL [WEE1] &field=protein stability index returns 2.72

# sequence LAKALLKRTAQAIEPYITNFFNQV [PDS5B] ; its protein stability index = 2.7

Value of protein stability index reported for the sequence PPPPPSYDPDYIQCPYCQRRFNEN [ZC2HC1A] is 5.44

For reference, reported protein stability index for AMEPDRKAAVSHWQQQSYLDSGIH [CTNNB1] stands at 3.95

The measured protein stability index associated with GFIRFDKRIEAEEAIKGLNGQKPL [ELAVL3] reads 4.08

For reference, reported protein stability index for RVDVDTYLTSQLPPLREIILGPSS [NFE2L1] stands at 2.67

Reported protein stability index of YGHELLINTLITSGADTAKCGIHS [ANKRD44] : 1.99

Item: VVRICCIRSFGHFIARLQGSILQF [SMG5] | protein stability index: 2.66

The sequence identified as GSKCSPEDLATAYNNRGQIKYFRV [TTC32] registered its protein stability index at 2.13

Sample DLSHIEGLSQAPQPLADEGPPGRS [SERTAD1] ; protein stability index observed: 5.14

For record LKERFAFLFNSELLSDVRFVLGKG [BTBD1] the listed protein stability index is 2.64

For LWVPQPPPRTIKRTRRRLSRNRDP [PWWP2B] the sequence record lists protein stability index as 3.82

Given item NQIMPKAGLLIIVLAIIAREGDCA [MAGEA3] , the value recorded as its protein stability index is 3.02

// protein stability index value for RFQDLVLRMLEYEPAARISPLGAL [DYRK1B] : 2.4

Lab book: protein stability index of NVNETDDWGRTALHYAAASDMDRN [ANKRD44] noted as 4.77

Entry SHPACPLEFAYYFRPGHLLANACL [ZSWIM9] ; protein stability index = 2.52

For GRLLLTLPLLRQTAGKVLAHFYGV [ESRRA] the sequence record lists protein stability index as 3.05

# sequence AEGSNSESSDDDSEEAPSTSGMGF [SDE2] ; its protein stability index = 5.26

Looking up RDSFMRHRGHCERRHRLGGVGAVP [ZBTB22] , I see its protein stability index listed as 3.25

Item: NAANRTGYVPSNYVERKNSLKKGS [NCK2] | protein stability index: 4.45

The reported value for TPHVYWAQRHRELYLRVELSDVQN [HACD3] in terms of protein stability index is 2.17

Consider LQHLIGLSNLTHVLYPVPLESYED [PRAME] . Its measured protein stability index is 2.54

Form field protein stability index, entry DLVRLLQNVARIPEFELLWKDIIH [INTS3] : 2.15

For PIVSSLADPLDTPPDSKEGIVVES [PDZK1] the sequence record lists protein stability index as 5.25

Lookup result for MKYTSEKFLEICKLSGFMSKLVPA [TPRG1] ; measured protein stability index: 2.56

Lab book: protein stability index of ESIVPIPSSNEEIRLVDDAFGKIC [INTS4] noted as 4.29

Lookup result for RKFWWKNVKMIVLICVIVFIIILF [VAMP8] ; measured protein stability index: 2.98

The sequence listed as TMEDTLMTVKQYEAARLEYDAYRT [ARFIP2] shows protein stability index equal to 3.74

The reported protein stability index of the sequence ALARNLLVDGETGESFPAQVPSGE [NFE2L1] was 4.5

In plain terms, TQDPSQPNSTKNQSLPKASPVTTS [LCOR] has a documented protein stability index of 5.12

Form: sequence = NAKKLSMYGVDLHHAKDSEGVEIM [EPB41L3] ; protein stability index = 3.61

Per the records, this sequence ( QLLILLQNCTDEGEREAIQKSVTR [POP5] ) has protein stability index equal to 4.12

response.value for RELNLPFGGMKSSGIGREGAKDSY [ALDH8A1] (field: protein stability index) = 4.16

# protein stability index (sequence: MMSLTKLADKELVHMISWAKKIPG [ESR2] ) is 2.16

The recorded protein stability index for entry ADGAWVVKMFYSFQDKRNLYLIME [STK38L] equals 2.99
